Reference for the values: PubChem BioAssay (NCI)

test system: MOLT-4 leukemia; assay: NCI tumour cell line growth inhibition, 48 h
Catalogue of TGI readings, one per entry.

# MOLECULE, TGI
data = [
    ("COc1ccc(OC)c(NCC#N)c1", "> 100 µM"),
    ("NC(=O)CCC(NC(=O)c1cccc2c(=O)c3ccccc3[nH]c12)C(=O)O (stereo unspecified)", "> 100 µM"),
    ("O=C1c2cc(-c3ccccc3)ccc2-c2c1c1ccc([N+](=O)[O-])cc1c(=O)n2CCCBr", "> 50 µM"),
    ("CC1CC(=O)Nc2ccc(N=NN(C)C)cc2N1C=O (stereo unspecified)", "> 100 µM"),
    ("CN[C@@H]1C[C@H]2O[C@@](C)([C@@H]1OC)n1c3ccccc3c3c4c(c5c6ccccc6n2c5c31)C(=O)N[C@H]4O", "> 4.75 µM"),
    ("Fc1cccc(CSc2ncnc3c2ncn3C2CCCS2)c1 (stereo unspecified)", "24 µM"),
    ("CNc1ncnc2c1nnn2C", "> 100 µM"),
    ("Cc1cc([N+](=O)[O-])ccc1NS(=O)(=O)c1cc(Cl)ccc1Cl", "20.1 µM"),
    ("CCOC(=O)C1C[C@H]2CO[C@H](c3ccccc3)N2C1=O (stereo partly specified)", "> 100 µM"),
    ("CC1(C)OCC(COC(=O)NCn2cc(-c3ccccc3)nn2)O1 (stereo unspecified)", "> 100 µM"),
    ("O=C1OC(c2ccc(Cl)cc2)(c2ccc(Cl)cc2)c2c1ccc1ccccc21", "> 100 µM"),
    ("O=c1cc(-c2ccccc2)[nH]c2c(Cl)cccc12", "> 100 µM"),
    ("COc1cc2c(cc1OC)C(CC1(O)CCCCC1)N(S(=O)(=O)c1ccc(C)cc1)CC2 (stereo unspecified)", "> 10 µM"),
    ("CSc1nc(SC)c2c(C(N)=S)[nH]nc2n1", "99.3 µM"),
    ("Cc1cc(Oc2cnc(=O)[nH]c2)cs1", "> 100 µM"),
    ("O=C(O)CC(NC(=O)CP(=O)(O)O)C(=O)O.[NH-]C1CCCCC1[NH-].[Pt+2] (stereo unspecified)", "31.4 µM"),
    ("COc1nc2ccc(CNc3ccc(C(=O)O)cc3)cc2nc1OC", "> 10 µM"),
    ("Cc1cc2c(c(C(=O)NCCC(=O)N[C@@H](C)C(=O)OCc3ccccc3)c1)Oc1c(cc(C)cc1C(=O)NCCC(=O)N[C@@H](C)C(=O)OCc1ccccc1)S2", "> 100 µM"),
    ("CCN(CC)CCCC(C)Nc1c2ccc(Cl)cc2nc2cc(OC)c(OC)cc12 (stereo unspecified)", "12.6 µM"),
    ("CC(=O)OC1CC[C@@]2(C)C(CC[C@]3(C)C2CC=C2[C@@H]4CC(C)(C)CCC4(C)CCC23C)[C@@]1(C)C(=O)O (stereo partly specified)", "47.3 µM"),
    ("Cc1ccc(-c2cc(=O)c3cc(C)c(C)c(C(=O)O)c3o2)cc1", "> 100 µM"),
]
